Assignment: determine reported logD for the given compounds.
assay: method code SF-AS, from Smul'skii, S.; Bogatskii, A.; Andronati, S.; Vikhlyaev, Yu.; Zhilina, Z. (1977). Lipophilic nature of quinazolin-2-ones and 1,2-dihydro-3H-1,4-benzodiazepin-2-ones. Otdel. Khim. Nauk., 235(2)369-371.; details: pH 7.4
One number for each entry.

Would you please look over these solved cases?
| compound | endpointResult |
| --- | --- |
| Cc1ccc2[nH]c(=O)nc(-c3ccccc3)c2c1 | 2.32 |
| CCC1N=C(c2ccccc2)c2cc(Br)ccc2NC1=O (configuration not stated) | 3.79 |
| O=C1Nc2ccc(Br)cc2C(c2ccccc2Cl)=NC1O (configuration not stated) | 2.54 |
| O=C1CN(O)C(c2ccccc2)=c2cc(Br)ccc2=N1 | 1.53 |
| O=c1nc(-c2ccccc2)c2ccccc2[nH]1 | 1.91 |
| O=C1CN=C(c2ccccc2Cl)c2cc(Br)ccc2N1 | 3.3 |
| CC1N=C(c2ccccc2)c2cc(Cl)ccc2N(C)C1=O (configuration not stated) | 3.68 |
| CC1N=C(c2ccccc2)c2cc(Cl)ccc2NC1=O (configuration not stated) | 3.25 |

Respectfully, I request logD for each entry included below.
1. O=c1nc(-c2ccccc2)c2cc(Br)ccc2[nH]1
2. CC(=O)OC1N=C(c2ccccc2)c2cc(Br)ccc2NC1=O (configuration not stated)
3. CCCC1N=C(c2ccccc2)c2cc(Cl)ccc2NC1=O (configuration not stated)

2.71
2.76
4.14
